Assay: Yolk lycopene concentration by HPLC in eggs from hens fed lycopene (Example 1 trial)
Assay type: in vivo, White Leghorn laying hens
Conditions: female, White Leghorn (Hyline W36), chicken (laying hen), egg yolk, oral; based upon HPLC data, large egg; read-out: Maximal concentration of yolk lycopene (converted)
Text: The purpose of this trial was to examine the ability of the laying hen to deposit lycopene into the egg yolk for the purpose of supplementing human diets with additional lycopene. Control egg-laying hens were fed a 100 gram per bird basal diet for 15 days described in Table 1. Test hens were fed the basal diet supplemented with varying amounts of lycopene. The California Polytechnic State University Animal Care and Use Committee approved all protocols. […]
endpoint: concentration at 15 days (ng/g)
Your answer is read as ng/g, so omit the unit and give the number.

Field concentration at 15 days (entry CC(C)=CCC/C(C)=C/C=C/C(C)=C/C=C/C(C)=C/C=C/C=C(C)/C=C/C=C(C)/C=C/C=C(\C)CCC=C(C)C [lycopene] ) reads 4710
